All values here come from PubChem BioAssay (NCI).

growth listing for selected compounds.
System: HT29 colon
ASSAY_COMMENT: NCI-60 one-dose screen, 48 h (100 = growth as untreated, 0 = no growth, -100 = all killed)
CONDITION_LABEL: 10 µM unless noted
Description: Growth inhibition of the HT29 human tumor cell line is measured as a screen for anti-cancer activity. Cells are grown in 96 well plates and exposed to the test compound for 48 hours. Compounds are tested at a single concentration, which is 10^-5 M for most compounds. The reported endpoint is percent growth (GI% or GIPRCNT), where numbers from 0 - 100% represent growth inhibition, and numbers from -100% - 0 represent cell death. For example, a value of 40 represents 60% growth inhibition. […]
Compounds without any hit were thinned out: in the full panel of roughly 83,000, 20% have a hit. Activity calls are given as the source filed them. The calls were made as follows: active = growth percent below 10; inactive = the rest.

>>> df
                                   compound  endpoint_label            result
0  Cc1ccc(OCCOCCOCCOCCOCCOc2ccc(C)n(O)c2=S)c(=S)n1O          growth  25.7% (inactive)

-- ask State the recorded growth for this entry: Cc1nn(C)c2ncnc(N/N=C/c3cccc(O)c3O)c12
-- reply 62.5% (inactive)

-- ask State the recorded growth for this entry: COc1ccc(-c2cc(C(=O)N3N=C(c4ccc(N)cc4)CC3c3ccc(Cl)cc3)c3ccccc3n2)cc1 (configuration not stated)
-- reply -11.7% (active)

-- ask State the recorded growth for this entry: CC(C)(Sc1cc(C(C)(C)C)c(O)c(C(C)(C)C)c1)Sc1cc(C(C)(C)C)c(OC(=O)CCC(=O)O)c(C(C)(C)C)c1
-- reply 24.2% (inactive)

-- ask State the recorded growth for this entry: CC(O)Cc1c[nH]c(=O)[nH]c1=O (configuration not stated)
-- reply 114% (inactive)

-- ask State the recorded growth for this entry: O=C(Nc1cccnc1Nc1ccc(Cl)cc1)c1cn(Cc2cccc(Oc3ccccc3)c2)nn1
-- reply 27.2% (inactive)

-- ask State the recorded growth for this entry: Cc1nc2sc(C(=O)Nc3ccccn3)c(N)c2cc1C(C)O (configuration not stated)
-- reply 27.4% (inactive)

-- ask State the recorded growth for this entry: CN(C)CCCn1c2c(c3ccncc3c1=O)C(=O)c1ccccc1-2
-- reply 2.14% (active)

-- ask State the recorded growth for this entry: Cc1cc(O)cc(-c2nn(C)cc2-c2cc(N3CCOCC3)nc(-c3cccnc3)n2)c1
-- reply 17.4% (inactive)

-- ask State the recorded growth for this entry: COc1ccc(NC(=O)c2ccc(Nc3ncnc4c3cnn4-c3cccc(F)c3)cc2)cc1
-- reply 104% (inactive)

-- ask State the recorded growth for this entry: COc1ccc(Oc2ccc(/C=C/C(=O)c3cc4ccccc4oc3=O)cc2)cc1
-- reply 108% (inactive)

-- ask State the recorded growth for this entry: C/C(=N\Nc1ccccc1)c1ccc(NC2=CC(=O)c3ccccc3C2=O)cc1
-- reply 75.3% (inactive)

* * *

Test system: SK-MEL-5 melanoma
ASSAY_COMMENT: NCI-60 one-dose screen, 48 h (100 = growth as untreated, 0 = no growth, -100 = all killed)
CONDITION_LABEL: 10 µM unless noted
Experimental: Growth inhibition of the SK-MEL-5 human tumor cell line is measured as a screen for anti-cancer activity. Cells are grown in 96 well plates and exposed to the test compound for 48 hours. Compounds are tested at a single concentration, which is 10^-5 M for most compounds. The reported endpoint is percent growth (GI% or GIPRCNT), where numbers from 0 - 100% represent growth inhibition, and numbers from -100% - 0 represent cell death. For example, a value of 40 represents 60% growth inhibition. […]
The panel holds about 83,000 compounds, 20% with a hit somewhere; the sample as a whole holds those more often.
Categorize each record by its growth using lower segment: < 20%; middle segment: ≥ 20% and < 90%; upper segment: ≥ 90%

Observe how each entry below is paired with its result.
                                   molecule  category_label
0  CCCCNC(=O)c1ccc2c(c1)nc(-c1ccccc1)n2C1CCCCC1   upper segment
1         CN(C)CCC(CCN(C)C)(C(=O)O)c1ccccc1   upper segment
2  CS(=O)(=O)Nc1cc(-c2ccc3ncnc(Nc4ccc5c(cnn5Cc5ccccc5F)c4)c3c2)cnc1Cl  middle segment
3  c1cc(OCCN2CCCCC2)ccc1CNc1ccc2nc(CCC3CCCCC3)[nH]c2c1   lower segment
4          Cc1ccccc1N1CCN(C(=S)c2ccccc2)CC1   upper segment
5            CSc1nc(-c2ccco2)c(C#N)c(=O)n1C   upper segment
6  O=C(/C=C/c1ccco1)Nc1ncc(Cc2cc(Cl)ccc2Cl)s1   lower segment
7  Cc1oc(-c2ccc(Cl)cc2)nc1C1=NN(C(=O)c2ccncc2)C(c2ccccc2)C1 (stereo unspecified)   upper segment

-- ask Given CC(C)C1C2=C(NCCN1C(=O)c1ccncc1)C(C)(C)N(Cc1ccccc1)C2=O (stereo unspecified) , name the class its growth places it in.
-- reply upper segment

-- ask Given N#Cc1ccccc1-c1ccc(CN2C(=O)S/C(=C\c3ccc(Br)cc3)C2=O)cc1 , name the class its growth places it in.
-- reply upper segment

-- ask Given CNC(=O)NCC1OC(n2cnc3c(NC(=O)Nc4ccccc4)ncnc32)C2OC(=O)CC12 (stereo unspecified) , name the class its growth places it in.
-- reply upper segment

-- ask Given CCOC(=O)c1nnn(Cc2cc(=O)oc3ccc(O)cc23)c1C , name the class its growth places it in.
-- reply upper segment

-- ask Given CCOC(=O)c1c(NC(=O)c2ccccc2)sc2c3c(ccc12)OCN(C)C3 , name the class its growth places it in.
-- reply lower segment

-- ask Given CCOC(=O)/C(=C(/C)NCC(C)C)c1cc(O)c(O)c2c(C)cc(=O)[nH]c12 , name the class its growth places it in.
-- reply middle segment

-- ask Given Cc1ccc(Cc2cnc(NC(=O)/C=C/c3ccc(C)o3)s2)cc1 , name the class its growth places it in.
-- reply middle segment

-- ask Given Cc1ncc(C(=O)Nc2ccc(CN3CCN(C)CC3)c(C(F)(F)F)c2)cc1C#Cc1cnc(N)c2ccc(C#N)cc12 , name the class its growth places it in.
-- reply lower segment

-- ask Given O=C(OCc1ccc2c(Cl)cc(Cl)c(O)c2n1)N1CCN(C(=O)c2cc3ccccc3[nH]2)CC1 , name the class its growth places it in.
-- reply middle segment

-- ask Given COc1ccc(-c2cc(-c3cn(-c4cccc(Cl)c4)nc3-c3ccc(OC)cc3)on2)cc1 , name the class its growth places it in.
-- reply upper segment

-- ask Given O=C(Nc1ccc(Oc2cccc(Cl)c2)c(Cl)c1)c1cccnn1 , name the class its growth places it in.
-- reply middle segment

* * *

Test system: 786-0 renal
ASSAY_COMMENT: NCI-60 one-dose screen, 48 h (100 = growth as untreated, 0 = no growth, -100 = all killed)
CONDITION_LABEL: 10 µM unless noted
The panel holds about 83,000 compounds, 20% with a hit somewhere; the sample as a whole holds those more often.
ENDPOINT_LABEL: growth (%)
Give the number; % is assumed, so skip it.

>>> print(df.to_string())
                                  compound  endpoint_label  readout_number
0  Cc1cc2oc(/C=C/c3ccccc3)cc(=O)c2c(C)c1Cl          growth            93.2
1            COC(=O)c1ccc2cc(OC)c(OC)cc2c1          growth            91.9

// next item, growth requested
-- ask State the recorded growth for this entry: COc1ccc(C(c2cc(OC)c(OC)c(OC)c2)N2CCCCC2)cc1 (stereo not drawn)
-- reply 38.8

* * *

Test system: HCT-15 colon
ASSAY_COMMENT: NCI-60 one-dose screen, 48 h (100 = growth as untreated, 0 = no growth, -100 = all killed)
CONDITION_LABEL: 10 µM unless noted
The panel holds about 83,000 compounds, 20% with a hit somewhere; the sample as a whole holds those more often. The source made the active and inactive calls. Rule for the calls: active = growth percent below 10; inactive = the rest.
ENDPOINT_LABEL: growth

Illustrative cases are given below, each with its answer.
In [3]: df
Out[3]:
                                   molecule                     result
0  C#Cc1cccc(NC(=O)C2CCCCN2C(=O)CCl)c1 (centres undefined)  -54.7% [8.25 µM] (active)
1         O=[N+]([O-])c1c(O)c(Cl)cc(Cl)c1Cl           99.8% (inactive)
2  COc1ccc(N/N=C/c2cn(-c3ccc(C(=O)O)cc3)nc2-c2cc3ccccc3oc2=O)cc1             30% (inactive)
3  Cc1cc(O)cc(-c2nn(C)cc2-c2cc(N3CCOCC3)nc(-c3cccnc3)n2)c1           22.7% (inactive)
4  CCN(CC)CCN1C(=O)c2c(c3c4ccccc4[nH]c3c3ccc4ccccc4c23)C1=O            -74.4% (active)

-- ask State the recorded growth for this entry: OC1(c2ccccc2)c2ccccc2N(c2ccccc2)c2ccc(Cl)cc21 (centres undefined)
-- reply -44.2% (active)

-- ask State the recorded growth for this entry: Nc1cc(C(=O)O)cc(-n2c(O)c(C=C3N=c4ccccc4=N3)sc2=S)c1
-- reply 103% (inactive)

-- ask State the recorded growth for this entry: Cc1ccc2c(c1)sc1nc(-c3c[nH]c4ccccc34)c(Nc3ccccc3)n12
-- reply 105% (inactive)

-- ask State the recorded growth for this entry: COc1ccc(/C=C/C(c2cc(OC)c(OC)c(OC)c2)n2cncn2)cc1O (centres undefined)
-- reply 16.5% (inactive)

-- ask State the recorded growth for this entry: CC1(C)CC(=O)C2=C(C1)C(c1ccc(Cl)cc1)n1ncc(C#N)c1N2 (centres undefined)
-- reply 105% (inactive)

-- ask State the recorded growth for this entry: COC(=O)[C@@]12CC=C(C)[C@]3(C[C@H](c4ccoc4)OC3=O)[C@H]1C=C[C@@H](O)[C@@]2(O)C(=O)OC
-- reply 108% (inactive)

-- ask State the recorded growth for this entry: Cn1cc(-c2nc3c(F)cc4[nH]ncc4c3c3c2CCCC3)c(C(F)(F)F)n1
-- reply 23.7% (inactive)
